Kindly supply the reported melting point values for the records listed here.

Reference set, count: 8
O=C(c1ccccc1Br)N1CCN(c2ccc(O)cc2)CC1: 180 to 181 °C
O=C(c1cccc(F)c1)N1CCN(c2ccc(O)cc2)CC1: 145 to 146 °C
COc1ccc(C(=O)N2CCN(c3ccc(O)cc3)CC2)cc1: 177 to 178 °C
Cc1ccccc1C(=O)N1CCN(c2ccc(O)cc2)CC1: 127 to 128 °C
O=C(c1cccc(Cl)c1)N1CCN(c2ccc(O)cc2)CC1: 138 to 139 °C
Nc1ccc(C(=O)N2CCN(c3ccc(O)cc3)CC2)cc1: 94 to 95 °C
O=C(c1ccccc1C(F)(F)F)N1CCN(c2ccc(O)cc2)CC1: 152 to 153 °C
Cc1cccc(C(=O)N2CCN(c3ccc(O)cc3)CC2)c1: 155 to 156 °C

Please state melting point for every compound in the list that follows.
1. O=C(c1ccc(C(F)(F)F)cc1)N1CCN(c2ccc(O)cc2)CC1
2. O=C(c1ccc(C(F)(F)F)cc1C(F)(F)F)N1CCN(c2ccc(O)cc2)CC1
3. O=C(c1ccccc1Cl)N1CCN(c2ccc(O)cc2)CC1
4. O=C(c1ccc(Br)cc1Br)N1CCN(c2ccc(O)cc2)CC1

1. 201 to 202 °C
2. 194 to 195 °C
3. 169 to 170 °C
4. 176 to 177 °C

====

Kindly supply the reported IC50 values for the records listed here.
# ASSAY TARGET: UniProt C7FF04
# Sequence (C7FF04 1-392 limits assumed): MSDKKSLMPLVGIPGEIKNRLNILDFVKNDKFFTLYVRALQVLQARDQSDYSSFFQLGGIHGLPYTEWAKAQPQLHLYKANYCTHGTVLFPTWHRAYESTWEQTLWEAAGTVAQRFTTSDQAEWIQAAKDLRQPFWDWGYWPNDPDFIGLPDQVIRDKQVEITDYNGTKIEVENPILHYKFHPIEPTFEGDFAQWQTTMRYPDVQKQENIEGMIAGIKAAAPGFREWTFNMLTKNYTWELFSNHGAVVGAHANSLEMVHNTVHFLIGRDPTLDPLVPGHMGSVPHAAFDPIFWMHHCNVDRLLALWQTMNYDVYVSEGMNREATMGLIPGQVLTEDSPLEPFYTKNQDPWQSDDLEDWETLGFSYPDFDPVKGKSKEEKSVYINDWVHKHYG
# EXPERIMENTAL DETAILS: Inhibition of diphenolase activity of AbTYR (L-DOPA as substrate);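 also: absorbance measured spectrophotometrically with L-DOPA as substrate, inhibition expressed as percent relative to control sample, IC50 interpolated from dose-response curves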
# DETAILS: IC50 [μM]±SD, inhibition of diphenolase activity of AbTYR, L-DOPA substrate, three replicates
One number for each entry, in µM.

Please state IC50 for every molecule in the list that follows.
1. Nc1ccc(C(=O)N2CCN(c3ccc(O)cc3)CC2)cc1
2. COc1ccc(C(=O)N2CCN(c3ccc(O)cc3)CC2)c(OC)c1

[43.9, 16.7]

Please state IC50 for every molecule in the list that follows.
1. Oc1ccc(N2CCNCC2)cc1
2. COc1ccc(C(=O)N2CCN(c3ccc(O)cc3)CC2)cc1

28.9
14.9

"O=C(c1ccccc1C(F)(F)F)N1CCN(c2ccc(O)cc2)CC1" has a reported IC50 of 4.6

====

READOUT TYPE: melting point

Reference set, count: 3
O=C(c1ccc([N+](=O)[O-])cc1)N1CCN(c2ccc(O)cc2)CC1: 157 to 158 °C
Cc1ccc(C(=O)N2CCN(c3ccc(O)cc3)CC2)c(C)c1: 164 to 165 °C
O=C(c1ccc(F)cc1F)N1CCN(c2ccc(O)cc2)CC1: 180 to 181 °C

"O=C(c1ccc([N+](=O)[O-])cc1[N+](=O)[O-])N1CCN(c2ccc(O)cc2)CC1" has a reported melting point of 225 to 226 °C

Where do these numbers come from? They come from paper PMC9828493.
